These entries and their values trace back to PubChem BioAssay.

Test: growth suppression of beta-catenin knockout HCT116, pilot screen, human colon tumor cells (AID 823);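 also: 0% = wells killed by 20 µM Hyamine and 100% = untreated DMSO cell wells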
Conditions: CellTiter-Glo, 60 h, at 10 µM, active compounds read low
Results filed as inconclusive are left out.
Kindly supply the reported viability values for the records listed here.
Give the value in % but do not write % after it.

Ask | Can you look up the measured viability of Cn1cc(SCC(=O)N2CCN(c3ccccc3)CC2)c2ccccc21 for me?
Reply | 91.3

Ask | Next: CC1(C)Cc2c(C#N)c(NC3CCCCC3)nc(-c3ccco3)c2CO1
Reply | 80.3

Ask | Now this one: CCOC(=O)C1=C(C)NC(C)=C(C(=O)OCC)C1c1nc2ccccc2[nH]1
Reply | 96.2

* * *

Answer each item with its documented viability.
Assay: growth suppression of PTEN-deleted HCT116, pilot screen, cell-based, HCT116 clonal line, CellTiter-Glo (AID 824);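 also: 0% = 20 µM Hyamine control and 100% = vehicle cell control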
Conditions: 60 h, at 10 µM, active compounds read low
Inconclusive results are not listed.
Kindly answer with a numeric value in %, unit omitted.

Ask | What measured viability goes with Cc1cnc(C(=O)OCC(=O)Nc2cc(Cl)cc(Cl)c2)cn1 ?
Reply | 88.5

Ask | And COc1cccc(N2CCN(C3CC(=O)N(c4ccc(Cl)cc4)C3=O)CC2)c1 (centres undefined) ?
Reply | 91.6

Ask | Could you do the same for CCOc1ccccc1NC(=O)CSc1nc2c(c(=O)n1C)SC(C)C2 (centres undefined) , please?
Reply | 89.1

Ask | Entry to check: COc1ccc(C(=O)N2CCN(S(=O)(=O)c3ccc(C)cc3C)CC2)cc1OC
Reply | 90.3

Ask | Next: CC(C)OC(=O)c1nnc(Cc2ccc(Cl)cc2)o1
Reply | 102

Ask | Also CC(=O)NCC(=O)N(c1ccccc1)C1(C(=O)NC2CCCCC2)CCCCC1 , if possible.
Reply | 98.3

Ask | Entry Brc1ccc2c(c1)c1nc3ccccc3nc1n2CCN1CCOCC1 please
Reply | 59.4

Ask | Ok, now CSC1=N/C(=C\c2ccccc2F)C(=O)S1
Reply | 104

Ask | Now try O=C(Nc1ccc(F)cc1)C1CCCN(S(=O)(=O)c2cccc3cccnc23)C1 (centres undefined) .
Reply | 80.3

Ask | # repeat for O=C(Cn1cnc2c(nnn2-c2ccccc2)c1=O)N1CCOCC1
Reply | 104

Ask | Next up: C=C(C)CSc1nnc(-c2cc(OC)c(OC)c(OC)c2)n1N
Reply | 97.8

Ask | // query: CCOC(=O)N1CCC(NC(=O)Cn2cc3c(n2)CCCCC3)CC1
Reply | 98.6

Ask | Would you mind doing O=C(OCC(=O)N1CCN(C(=O)c2ccco2)CC1)c1sc2ccccc2c1Cl as well?
Reply | 102

Ask | What do you get for Cc1cc(C)nc(-n2nc(C)cc2NC(=O)CN2CCC(C)CC2)n1 ?
Reply | 85.5

* * *

Assay: growth suppression of beta-catenin knockout HCT116, pilot screen, human colon tumor cells (AID 823);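 also: 0% = wells killed by 20 µM Hyamine and 100% = untreated DMSO cell wells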
Settings: CellTiter-Glo, 60 h, at 10 µM, active compounds read low
Inconclusive results are not listed.
assay.metric: viability (%)
Numeric answer only, unit % assumed.

Ask | Fill blank: measured viability of the compound CCCc1nnc(NC(=O)CCC(=O)O)s1 is ____.
Reply | 92.8

Ask | Now this one: O=C(CC(c1ccccc1)c1ccccc1)NCCO
Reply | 100

Ask | // repeat for O=C(O)C1C2C=CC(C2)C1C(=O)NCc1ccc2c(c1)OCO2 (stereo not given) and report
Reply | 94.6

Ask | Same again, this time with CCCC(=O)NCCCCNC(=O)CCC
Reply | 96.4

Ask | Follow-up item: COC(=O)N1CC(C)N(C(=O)OC)CC1C (stereo not given)
Reply | 95.2

Ask | Also, CC1(C)CC(N2CCN(c3ccccc3)CC2)=CC(=[N+]2CCCC2)C1 please.
Reply | 18.1

Ask | For O=C(CN1CCN(Cc2ccccc2Cl)C1=O)NCC1CCCO1 (stereo not given) then?
Reply | 97.2

Ask | Likewise for O=c1[nH]cnc2c1sc(=S)n2-c1ccccc1 ?
Reply | 101

Ask | Now give it for CCCCCn1c(CCCNC(=O)CC)nc2ccccc21 too.
Reply | 89

Ask | Now consider Cc1c(C(=O)N2CCC(C(N)=O)CC2)sc(N)c1C#N and answer again.
Reply | 94.7

Ask | Record: CCOc1cc(N2CCOCC2)c(OCC)cc1NC(=O)c1cc(-c2ccco2)nc2ccccc12
Reply | 65.4

Ask | Repeat with O=S(=O)(NCCSc1nc2ccccc2o1)c1ccccc1
Reply | 94.4

Ask | Then CCc1nnc(NC(=O)c2ccc(S(=O)(=O)N3CCOCC3)cc2)s1 ?
Reply | 105

Ask | Next compound up: O=C(Cn1cc2c(n1)CCCC2)Nc1ccccc1Cl
Reply | 99.4

Ask | # iterate: O=C(CCS(=O)(=O)c1cccc2nonc12)NCCc1ccccc1Cl
Reply | 91.2

* * *

Experiment: Restrictive medium S. cerevisiae growth inhibition, OD615, pilot screen of yeast lifespan reduction project, restrictive growth control (AID 706);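 also: modified DeaD lifespan yeast strain shifted to restrictive glucose medium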
Conditions: OD615, 48 h, at 10 µM, active compounds read high
Active and inactive are the calls of the source.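 How the source made its calls: active means growth inhibition above a set limit, 3 SD over mean compound inhibition, in both replicates (cut at about 43% in these data); inconclusive means above the limit in only one replicate; inactive means at or below the limit in both replicates.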
So I've got a bunch of compounds here, and I need their growth inhibition values.

Ask | What measured growth inhibition goes with O=S(=O)(CCc1ccccc1)N1CCOCC1 ?
Reply | -1.08% (inactive)

Ask | Thanks! And Cc1c(C(=O)NCC2CCCO2)sc2nc(-c3ccccc3)cn12 (stereo unspecified) ?
Reply | 8.27% (inactive)

Ask | Similarly, O=C(Cn1cc2c(n1)CCCC2)NCc1cccs1 ?
Reply | -3.48% (inactive)

Ask | Record: Cc1ccc2c(c1)NCC(C(=O)NCc1ccccc1)O2 (stereo unspecified)
Reply | 2.51% (inactive)

Ask | Please answer likewise for CCOC(=O)c1c(C)oc2cc(Br)c(OC(C)C(=O)OCC)cc12 (stereo unspecified)
Reply | -5.88% (inactive)

Ask | Next compound up: CCCCC(CC)C(=O)NCCCN1CCN(CCCNC(=O)C(CC)CCCC)CC1 (stereo unspecified)
Reply | 2.97% (inactive)

* * *

Assay: growth suppression of beta-catenin knockout HCT116, pilot screen, human colon tumor cells (AID 823);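 also: 0% = wells killed by 20 µM Hyamine and 100% = untreated DMSO cell wells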
Conditions: CellTiter-Glo, 60 h, at 10 µM, active compounds read low
Inconclusive results are not listed.
assay.metric: viability (%)
Numbers only; they are read as %.

Ask | What does the record list as viability for CCCC(=O)Nc1ccc(N2CCCCC2)cc1 ?
Reply | 87.2

Ask | Query Cc1c(C(=O)NCCCN2CCOCC2)sc2nc(-c3ccccc3)cn12 next
Reply | 92.2

Ask | What about CC(C)NS(=O)(=O)c1ccc2c(c1)oc(=O)n2C ?
Reply | 106

Ask | Input O=c1oc(-c2cccs2)nc2sc3c(c12)CCCCC3
Reply | 89

Ask | Also c1ccc(Oc2nc(Oc3ccccc3)nc(N3CCOCC3)n2)cc1 , if possible.
Reply | 83.7

Ask | Quick one: Cc1cc(-c2ccco2)n(CC(=O)NCc2ccco2)n1
Reply | 100

Ask | Then what about the compound Nn1c(SCc2ccccc2)nnc1-c1ccco1 ?
Reply | 99.2

Ask | Would you mind doing O=C(c1cc(-c2cccc(O)c2)on1)N1CCOCC1 as well?
Reply | 107

Ask | // same read-out, input: COc1cccc(N(CC(=O)NCc2cccnc2)S(C)(=O)=O)c1
Reply | 95.1

Ask | Lookup COCCOC(=O)C1=C(C)NC(=O)NC1C1CC=CCC1 (stereo not given)
Reply | 91.5

Ask | Follow-up item: Cn1c(=O)c2c(nc(OCc3ccccc3)n2C)n(C)c1=O
Reply | 100

Ask | What about this compound? CC(=O)Oc1cc2c(C(=O)NCc3ccncc3)c(C)oc2c2ccccc12
Reply | 90.9

Ask | Also COc1cc(C)c(N(C(C)=O)c2ccccc2)c(C)c1 , if possible.
Reply | 92.2

Ask | Request: Cc1ccc(C)c(S(=O)(=O)NC(CC(C)C)C(=O)O)c1 (stereo not given)
Reply | 105

Ask | # repeat for COc1cccc(C(=O)NC2CC3CCCC(C2)N3CC(=O)Nc2ccc(N(C)C)cc2)c1 (stereo not given)
Reply | 85.4

Ask | Do the same for COc1ccc(NC(=O)NCCCN2CCc3ccccc3C2)cc1 please
Reply | 97.3

Ask | One more compound: Cc1c(NC(=O)c2ccc3c(c2)OCO3)c(=O)n(-c2ccccc2)n1C
Reply | 104

Ask | Thanks! And Cn1c(SCC(=O)Nc2cc(=O)n(C)c(=O)n2C)nnc1C12CC3CC(CC(C3)C1)C2 ?
Reply | 88.8

Ask | Similarly, C=CC(C)Sc1nc2c(c(=O)n(C)c(=O)n2C)n1Cc1ccccc1Cl (stereo not given) ?
Reply | 100

Ask | Queued: CC(C)C(NS(=O)(=O)c1ccc2c(c1)oc(=O)n2C)C(=O)N1CCN(c2ccccc2F)CC1 (stereo not given)
Reply | 86.9

Ask | Now consider Cc1cc(N=CC2=C(O)CC(C)(C)CC2=O)no1 .
Reply | 93.2

Ask | Then N#CC1=C2SCN(c3ccc(F)cc3)CN2C(=O)CC1c1cccc(F)c1 (stereo not given) ?
Reply | 104

Ask | How about this compound: COc1cc(OC)c(C2Oc3nc(SC)nnc3-c3ccccc3N2C(C)=O)cc1OC (stereo not given)
Reply | 108

Ask | Let us now turn to Cn1c(Cn2c(=O)sc3ccccc32)nnc1SCC(=O)N1CCCCCC1
Reply | 102

Ask | Continue with CCOC(=O)C1=C(C)N=c2s/c(=C\C(=O)OC)c(=O)n2C1c1ccc(OC)cc1 (stereo not given)
Reply | 100

Ask | Now give it for CCCCNC(=O)Nc1ccc(Br)cn1 too.
Reply | 97.6

Ask | Now this one: COc1cccc(CNC(=O)Cn2cc3c(n2)CCCCC3)c1
Reply | 92.3

Ask | Cool, now COCCN1C(=O)c2ccccc2C(C(=O)N2CCN(c3ccccn3)CC2)C1c1ccc(F)cc1 (stereo not given)
Reply | 92.2

Ask | Then this compound: COc1ccccc1N1CCN(C(=O)CCCC2=NS(=O)(=O)c3ccccc3N2)CC1
Reply | 97.3

Ask | Check CCOC(=O)NC(Nc1nnc(SCC)s1)(C(F)(F)F)C(F)(F)F too.
Reply | 89.8

Ask | Let us now turn to COc1cccc(CN2C(=O)CCC2(C)C(=O)NC2CCCCC2)c1 (stereo not given)
Reply | 107

Ask | Then Cn1c(C(=O)NCCCN2CCCC2=O)cc2c(=O)n(C)c3ccccc3c21 ?
Reply | 108

Ask | Note, next up: Cc1ccc(C(=O)CSC2=NC(N)=C(C#N)C3(CCCCC3)C2C(N)=O)cc1 (stereo not given)
Reply | 89.6

Ask | Please answer likewise for OC(CN1C2=NCCCN2c2ccccc21)c1ccc(Cl)cc1 (stereo not given)
Reply | 73.8

Ask | Cool, now N#Cc1nc(COc2ccccc2)oc1N1CCCCC1
Reply | 87.5
